Let's look at some molecules and their measured IC50.
System: HeLa
MEASUREMENT_NOTES: Cytotoxicity against human HeLa cells assessed as cell viability after 48 hrs by MTT assay
Format: functional, cell-based
The reply should be a number in µM, with the unit left off.

These recorded examples may help you get a feel for the data.
[[record]]
smiles_string = "CC1=C(C)C(=O)O[C@@H]([C@@H](C)[C@H]2CC=C3[C@@H]4C[C@H]5O[C@]56[C@@H](O)C=CC(=O)[C@]6(C)[C@H]4CC[C@@]32C)C1"
recorded_measurement = 3.5

[[record]]
smiles_string = "CC1=C(CO)C(=O)O[C@@H]([C@@H](C)[C@H]2CC[C@H]3[C@@H]4C[C@H](Cl)[C@]5(O)[C@@H](O)C=CC(=O)[C@]5(C)[C@H]4CC[C@]23C)C1"
recorded_measurement = 13.4

[[record]]
smiles_string = "CC1=C(CO)C(=O)O[C@@H]([C@@H](C)C2=CC[C@H]3[C@@H]4C[C@H]5O[C@]56[C@@H](O)C=CC(=O)[C@]6(C)[C@H]4CC[C@]23C)C1"
recorded_measurement = 3.5


Fill blank: measured IC50 of the molecule CC(=O)OCC1=C(C)C[C@H]([C@@H](C)[C@H]2CC[C@H]3[C@@H]4C[C@H]5O[C@]56[C@@H](O)[C@@H](O)CC(=O)[C@]6(C)[C@H]4CC[C@]23C)OC1=O is ____. 8.9
